# Assayed Target: hROMK (hKir1.1) (Homo sapiens (Human))
# Test Name: Thallium Flux Assay (ROMK channel functional thallium flux, FLIPR-Tetra)
# Type: cell-based
# Condition Parameters: HEK293 cells stably expressing hROMK (hKir1.1); read-out: Thallium Flux IC50
Here, each record is paired with measured pIC50 data.
Worth noting: pIC50 values are minus log10 of concentrations stated in mol/L.

Request: So what's the measured pIC50 for this one? Cc1c([C@H]2CN3CCN(C(=O)Cc4cccc(-n5cnnn5)c4)C[C@H]3CO2)ccc(F)c1C#N
Result: 6.62

====

# Assayed Target: hROMK (hKir1.1) (Homo sapiens (Human), UniProt P48048)
# Test Name: Thallium Flux Assay (ROMK channel functional thallium flux, FLIPR-Tetra)
# Assay type: cell-based
# Condition Parameters: HEK293 cells stably expressing hROMK (hKir1.1); read-out: Thallium Flux IC50
// boundary case: IC50 equal to 300 nM maps to NOT MET; strictly smaller maps to MET

// below: answered compounds
[
  {
    "Compound": "Cc1c([C@@H]2CN3CCN(C(=O)Cc4cc(F)c(-n5cnnn5)cc4F)C[C@H]3CO2)ccc(F)c1C#N",
    "Label Class": "MET"
  },
  {
    "Compound": "Cc1c(C2CN3CCCN(C(=O)Cc4ccc(-n5cnnn5)cc4)CC3CO2)ccc2c1COC2=O (stereo not shown)",
    "Label Class": "NOT MET"
  },
  {
    "Compound": "O=C1OCc2c1ccc([C@@H]1CN3CCN(C(=O)Cc4ccc(-n5cnnn5)cc4)C[C@H]3CO1)c2Cl",
    "Label Class": "NOT MET"
  },
  {
    "Compound": "COc1ccc([C@@H]2CN3CCN(C(=O)Cc4ccc(-n5cnnn5)cc4)C[C@H]3CO2)c(F)c1C#N",
    "Label Class": "MET"
  },
  {
    "Compound": "Cc1c([C@H]2CN3CCN(C(=O)Cc4cccc(-n5cnnn5)c4)C[C@@H]3CO2)ccc(F)c1C#N",
    "Label Class": "MET"
  },
  {
    "Compound": "COc1cc([C@@H]2CN3CCN(C(=O)C4CCc5cc(-n6cnnn6)ccc54)C[C@H]3CO2)ccc1C#N (stereo partly shown)",
    "Label Class": "NOT MET"
  }
]

# next compound below
Request: Does the reported IC50 of the following compound sit strictly below 300 nM? COc1cc([C@@H]2CN3CCN(C(=O)C4CCc5cc(-n6cnnn6)ccc54)C[C@@H]3CO2)ccc1C#N (stereo partly shown)
Result: MET

====

# Assayed Target: Kir1.1 (ROMK1) (Homo sapiens (Human), UniProt P48048)
# Sequence (P48048 whole entry): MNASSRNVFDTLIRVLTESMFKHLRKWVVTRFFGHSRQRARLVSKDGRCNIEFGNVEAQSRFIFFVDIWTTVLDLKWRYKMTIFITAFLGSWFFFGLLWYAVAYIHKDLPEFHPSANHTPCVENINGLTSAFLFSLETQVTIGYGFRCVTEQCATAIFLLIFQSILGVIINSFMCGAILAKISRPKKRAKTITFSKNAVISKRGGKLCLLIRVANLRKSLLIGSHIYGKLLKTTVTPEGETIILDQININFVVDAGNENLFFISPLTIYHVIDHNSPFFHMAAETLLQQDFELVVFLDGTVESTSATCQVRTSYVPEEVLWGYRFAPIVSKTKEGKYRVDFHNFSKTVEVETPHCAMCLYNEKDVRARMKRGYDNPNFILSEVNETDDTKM
# Test Name: Electrophysiology Assay (whole cell voltage clamp, IonWorks Quattro)
# Assay type: cell-based
# Condition Parameters: Electrophysiology IC50, Chinese hamster ovary cells stably expressing Kir1.1; block during voltage step to 0 mV
Each entry below carries its recorded IC50.
Give just the numeric value; nM need not be written.

Below, each entry is followed by its recorded IC50 result.
[
  {
    "Compound": "COc1cc([C@H]2CN3CCN(C(=O)Cc4ccc(-n5cnnn5)cc4)C[C@@H]3CO2)ccc1C#N [Example 18]",
    "Unit Descriptor": "nM",
    "IC50": 110
  },
  {
    "Compound": "O=C1OCc2c1ccc([C@H]1CN3CCN(C(=O)Cc4ccc(-n5cnnn5)cc4)C[C@H]3CO1)c2Cl [Example 21]",
    "Unit Descriptor": "nM",
    "IC50": 100
  },
  {
    "Compound": "Cc1c([C@H]2CN3CCN(C(=O)Cc4ccc(-n5cnnn5)cc4)C[C@H]3CO2)csc1C#N [Example 40]",
    "Unit Descriptor": "nM",
    "IC50": 80
  }
]

Alright, here's another compound for you.
Request: Field request: IC50 | item: Cc1c([C@@H]2CN3CCN(C(=O)Cc4ccc5c(c4)COC5=O)C[C@H]3CO2)ccc(F)c1C#N [Example 24]
Result: 80

====

# Assayed Target: hROMK (hKir1.1) (Homo sapiens (Human))
# Test Name: Thallium Flux Assay (ROMK channel functional thallium flux, FLIPR-Tetra)
# Assay type: cell-based
# Condition Parameters: Thallium Flux IC50
# Method: Cell Culture Conditions—HEK293 cells stably expressing hROMK (hKir1.1) were grown at 37° C. in a 10% CO2 humidified incubator in complete growth media: Dulbecco's Modified Eagle Medium supplemented with non-essential amino acids, Penicillin/Streptomycin/Glutamine, G418 and FBS. […] Data Calculation—The fluorescence intensity of wells containing 3 μM of a standard control ROMK inhibitor of the present invention is used to define the ROMK-sensitive component of thallium flux. […]
Metric Name: IC50 (nM)
Give just the numeric value; nM need not be written.

[
  {
    "Smiles Text": "Cc1c([C@@H]2CN3CCN(C(=O)Cc4c(F)cc(-n5cnnn5)cc4F)C[C@H]3CN2)ccc(F)c1C#N",
    "Assayed Target": "hROMK (hKir1.1) (Homo sapiens (Human))",
    "Recorded Number": 150
  }
]

Would you kindly look at the next entry?
Request: Fill blank: measured IC50 of the molecule Cc1c([C@H]2CN3CCN(C(=O)Cc4c(F)cc(-n5cnnn5)cc4F)C[C@H]3CN2)ccc(F)c1C#N is ____.
Result: 110

====

# Assayed Target: UniProtKB P48048
# Test Name: Electrophysiology Assay (whole cell voltage clamp, IonWorks Quattro)
# Type: cell-based
# Condition Parameters: Chinese hamster ovary cells stably expressing Kir1.1; block during voltage step to 0 mV; read-out: Electrophysiology IC50
# Description: Chinese hamster ovary cells stably expressing Kir1.1 channels were maintained in T-75 flasks in cell culture media in a humidified 10% CO2 incubator at 37° C. Prior to an experiment, Kir1.1 expression was induced by overnight incubation with 1 mM sodium butyrate. […] After centrifugation, the cell pellet was resuspended in approximately 4.0 mL of bath solution and placed in the IonWorks instrument. […] Current amplitudes were measured using the IonWorks software.
IC50 overview
Numbers only here, please. The scale is nM.

Example compounds with recorded IC50:
[
  {
    "Compound": "COc1ccc([C@@H]2CN3CCN(C(=O)Cc4ccc(-n5cnnn5)cc4)C[C@H]3CO2)c(C)c1C#N [Example 26]",
    "Unit Descriptor": "nM",
    "Recorded Number": 260
  },
  {
    "Compound": "Cc1c([C@@H]2CN3CCN(C(=O)Cc4cc(-n5cnnn5)ccc4F)C[C@@H]3CO2)ccc(F)c1C#N [Example 59]",
    "Unit Descriptor": "nM",
    "Recorded Number": 140
  },
  {
    "Compound": "Cc1c(CC(=O)N2CCN3C[C@@H](c4ccc(F)c(C#N)c4C)OC[C@H]3C2)cccc1-n1cnnn1 [Example 60]",
    "Unit Descriptor": "nM",
    "Recorded Number": 420
  },
  {
    "Compound": "Cc1c([C@@H]2CN3CCN(C(=O)Cc4c(F)cc(-n5cnnn5)cc4F)C[C@@H]3CO2)ccc(F)c1C#N [Example 53]",
    "Unit Descriptor": "nM",
    "Recorded Number": 110
  },
  {
    "Compound": "Cc1c([C@@H]2CN3CCN(C(=O)C(C)c4ccc(-n5cnnn5)cc4)C[C@H]3CO2)ccc(F)c1C#N (stereo partly shown) [Example 45]",
    "Unit Descriptor": "nM",
    "Recorded Number": 210
  },
  {
    "Compound": "Cc1cc(F)c(C#N)cc1[C@@H]1CN2CCN(C(=O)Cc3ccc(-n4cnnn4)cc3)C[C@H]2CO1 [Example 38]",
    "Unit Descriptor": "nM",
    "Recorded Number": 180
  },
  {
    "Compound": "COc1cc(CC(=O)N2CCN3C[C@H](c4ccc5c(c4C)COC5=O)OC[C@@H]3C2)c(F)cc1C#N [Example 16]",
    "Unit Descriptor": "nM",
    "Recorded Number": 180
  },
  {
    "Compound": "Cc1c([C@H]2CN3CCN(C(=O)Cc4cccc(-n5cnnn5)c4)C[C@@H]3CO2)ccc(F)c1C#N [Example 57]",
    "Unit Descriptor": "nM",
    "Recorded Number": 50
  }
]

Request: IC50 lookup needed for N#Cc1cc([C@H]2CN3CCN(C(=O)C4CCc5cc(-n6cnnn6)ccc54)C[C@H]3CO2)ccc1F (stereo partly shown) [Example 3] , thanks.
Result: 180

Request: Same question for Cc1c([C@@H]2CN3CCN(C(=O)C4CCc5cc(-n6cnnn6)ccc54)C[C@H]3CO2)csc1C#N (single isomer, unassigned) [Example 83] please.
Result: 90

Request: Same lookup for Cc1c([C@@H]2CN3CCN(C(=O)Cc4ccc(-n5cnnn5)cc4)C[C@H]3CO2)ccc2nonc12 [Example 76] , please.
Result: 220

Request: Next: Cc1c([C@H]2CN3CCN(C(=O)C4Cc5ccc(-n6cnnn6)cc5C4)C[C@H]3CO2)ccc(F)c1C#N (stereo partly shown) [Example 44]
Result: 160

Request: Quick one: Cc1c([C@@H]2CN3CCN(C(=O)C4CCCc5cc(-n6cnnn6)ccc54)C[C@H]3CO2)ccc2c1COC2=O (single isomer, unassigned) [Example 89]
Result: 460
